src = PubChem BioAssay AID1918942

Test system: 743489-274-T-PDC complex spheroid viability;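 also: spheroids exposed to compounds for 7 days before readout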
Assay: Anticancer human tumor 743489-274-T-PDC patient-derived renal cell carcinoma cell line growth inhibition
Settings: second compound 10 µM; first compound 0.003 µM; stronger effect = lower value
Quick rule for you: viability, T/C under 80% gets Criterion met, anything else gets Criterion not met.

# compound, categoryLabel
data = [
    ("CCc1c2c(nc3ccc(O)cc13)-c1cc3c(c(=O)n1C2)COC(=O)[C@]3(O)CC + NC1CC1c1ccc(-c2cccc(O)c2)cc1", "Criterion met"),
    ("Nc1ncn(C2CC(O)C(CO)S2)c(=O)n1 (stereo unspecified) + NC1CCC(NC2CC2c2ccccc2)CC1", "Criterion not met"),
    ("Nc1ccn(C2OC(CO)C(O)C2(F)F)c(=O)n1 (stereo unspecified) + NC1CC1c1ccc(-c2cccc(O)c2)cc1", "Criterion met"),
    ("Nc1ncn(C2CC(O)C(CO)S2)c(=O)n1 (stereo unspecified) + NC1CC1c1ccc(-c2cccc(O)c2)cc1", "Criterion not met"),
]
